Molecular target: TANK-2 enzyme (Homo sapiens, UniProt Q9H2K2)
Construct: made in house
Sequence (Q9H2K2 1-1166): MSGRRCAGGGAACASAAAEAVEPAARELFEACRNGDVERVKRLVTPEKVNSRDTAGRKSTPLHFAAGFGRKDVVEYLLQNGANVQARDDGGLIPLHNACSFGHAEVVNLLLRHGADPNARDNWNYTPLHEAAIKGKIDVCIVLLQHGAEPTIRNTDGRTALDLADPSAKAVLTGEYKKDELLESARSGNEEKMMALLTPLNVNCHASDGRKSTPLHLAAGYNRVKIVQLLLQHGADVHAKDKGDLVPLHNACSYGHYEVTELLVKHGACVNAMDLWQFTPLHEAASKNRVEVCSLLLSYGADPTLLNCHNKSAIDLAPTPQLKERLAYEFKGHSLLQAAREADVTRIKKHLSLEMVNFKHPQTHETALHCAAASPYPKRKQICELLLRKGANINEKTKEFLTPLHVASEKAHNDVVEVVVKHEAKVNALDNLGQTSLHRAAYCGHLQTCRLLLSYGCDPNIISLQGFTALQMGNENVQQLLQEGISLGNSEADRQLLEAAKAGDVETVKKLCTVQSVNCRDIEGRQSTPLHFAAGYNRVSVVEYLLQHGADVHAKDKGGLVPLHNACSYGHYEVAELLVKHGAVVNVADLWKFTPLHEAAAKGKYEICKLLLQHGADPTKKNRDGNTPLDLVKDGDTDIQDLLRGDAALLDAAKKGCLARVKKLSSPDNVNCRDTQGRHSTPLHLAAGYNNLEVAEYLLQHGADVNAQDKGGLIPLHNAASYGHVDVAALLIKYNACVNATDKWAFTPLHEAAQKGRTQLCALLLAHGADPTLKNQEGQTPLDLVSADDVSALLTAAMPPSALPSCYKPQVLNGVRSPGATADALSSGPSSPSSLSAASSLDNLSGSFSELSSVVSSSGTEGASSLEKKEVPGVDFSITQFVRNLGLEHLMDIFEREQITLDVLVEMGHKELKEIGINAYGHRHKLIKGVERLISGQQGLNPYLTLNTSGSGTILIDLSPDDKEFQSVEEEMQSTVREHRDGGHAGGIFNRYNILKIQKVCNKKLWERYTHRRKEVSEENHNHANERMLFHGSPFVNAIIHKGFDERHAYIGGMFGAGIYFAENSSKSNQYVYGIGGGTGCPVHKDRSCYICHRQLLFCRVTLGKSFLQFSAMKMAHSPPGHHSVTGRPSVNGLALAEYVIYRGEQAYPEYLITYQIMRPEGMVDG
Experiment: In vitro Scintillation Proximity Assay (SPA) for TANK-2 inhibitory activity
Assay type: biochemical
Conditions: read-out: in vitro SPA assay TANK-2 pIC50 (converted)
Method: Compounds of the present invention were tested in an in vitro assay based on SPA technology with Ni Flash plates (96 or 384 well). […] A stock solution of 100 nM [3H]-NAD^+/NAD (0.1 mCi/ml, supplier: Perkin Elmer) and 0.25 μM NAD (Sigma) was made in assay buffer (60 mM Tris/HCl, pH 7.4; 0.9 mM DTT; 6 mM MgCl2). […] Values were expressed as counts per minute (cpm). […] For each sample, the amount of cpm was expressed as a percentage of the mean cpm value of the controls. […]
QUANTITY: IC50 (nM)
Only the number, expressed in nM, is required.

Given the entry CCc1cc2ccc(C(C)(C#N)CCOc3cccc(C)c3)cc2[nH]c1=O (stereo not drawn) , report its measured IC50.
158

Given the entry CCc1cc2ccc(C(C)(C#N)Cc3nncn3C)cc2[nH]c1=O (stereo not drawn) , report its measured IC50.
398

Given the entry CCc1cc2ccc(C(C)(C#N)Cc3cccc(S(F)(F)(F)(F)F)c3)cc2[nH]c1=O (stereo not drawn) , report its measured IC50.
398

###

Test system: PC3 cells
Assay: EB1 Comet (microtubule disruption) assay
Format: cell-based, human
Details: Homo sapiens, PC-3, 1 h, 1 hour treatment, read-out: EB1 pLAC (converted)
Method: The Eb1 Comet assay relies on the detection of the Eb1 protein at the plus end of polymerizing microtubules (Mimori-Kiyosue, 2000) using indirect immunofluorescence. […] Briefly, human prostate cancer PC3 cells obtained from the American Type Culture Collection were grown in 96-well plates (Greiner, cat. no. 655090) in HAM's F12 medium as recommended by the provider (ATCC). […] Compound dependent microtubule disruption was visually determined by the disappearance in Eb1 foci. […]
Each item that follows carries a reported minimal effective concentration.
Only the number, expressed in µM, is required.

Look over these answered cases.
COMPOUND	minimal effective concentration (µM)
CCc1cc2ccc(C(C)(C#N)Cc3nc(C)cc(OC)n3)cc2[nH]c1=O (stereo not drawn)	0.316
COc1cc2ccc(C(C)(C#N)Cc3cccc(C#N)n3)cc2[nH]c1=O (stereo not drawn)	0.316
CCc1cc2ccc(C(C)(C#N)Cc3cccc(OC)c3F)cc2[nH]c1=O (stereo not drawn)	0.562

What measured minimal effective concentration is associated with Cc1cc2ccc(C(C)(C#N)Cc3noc(-c4cccc(C(F)(F)F)c4)n3)cc2[nH]c1=O (stereo not drawn) on PC3 cells?
3.16

###

Molecular target: TANK-2 enzyme (Homo sapiens)
Construct: made in house
Sequence (Q9H2K2 1-1166): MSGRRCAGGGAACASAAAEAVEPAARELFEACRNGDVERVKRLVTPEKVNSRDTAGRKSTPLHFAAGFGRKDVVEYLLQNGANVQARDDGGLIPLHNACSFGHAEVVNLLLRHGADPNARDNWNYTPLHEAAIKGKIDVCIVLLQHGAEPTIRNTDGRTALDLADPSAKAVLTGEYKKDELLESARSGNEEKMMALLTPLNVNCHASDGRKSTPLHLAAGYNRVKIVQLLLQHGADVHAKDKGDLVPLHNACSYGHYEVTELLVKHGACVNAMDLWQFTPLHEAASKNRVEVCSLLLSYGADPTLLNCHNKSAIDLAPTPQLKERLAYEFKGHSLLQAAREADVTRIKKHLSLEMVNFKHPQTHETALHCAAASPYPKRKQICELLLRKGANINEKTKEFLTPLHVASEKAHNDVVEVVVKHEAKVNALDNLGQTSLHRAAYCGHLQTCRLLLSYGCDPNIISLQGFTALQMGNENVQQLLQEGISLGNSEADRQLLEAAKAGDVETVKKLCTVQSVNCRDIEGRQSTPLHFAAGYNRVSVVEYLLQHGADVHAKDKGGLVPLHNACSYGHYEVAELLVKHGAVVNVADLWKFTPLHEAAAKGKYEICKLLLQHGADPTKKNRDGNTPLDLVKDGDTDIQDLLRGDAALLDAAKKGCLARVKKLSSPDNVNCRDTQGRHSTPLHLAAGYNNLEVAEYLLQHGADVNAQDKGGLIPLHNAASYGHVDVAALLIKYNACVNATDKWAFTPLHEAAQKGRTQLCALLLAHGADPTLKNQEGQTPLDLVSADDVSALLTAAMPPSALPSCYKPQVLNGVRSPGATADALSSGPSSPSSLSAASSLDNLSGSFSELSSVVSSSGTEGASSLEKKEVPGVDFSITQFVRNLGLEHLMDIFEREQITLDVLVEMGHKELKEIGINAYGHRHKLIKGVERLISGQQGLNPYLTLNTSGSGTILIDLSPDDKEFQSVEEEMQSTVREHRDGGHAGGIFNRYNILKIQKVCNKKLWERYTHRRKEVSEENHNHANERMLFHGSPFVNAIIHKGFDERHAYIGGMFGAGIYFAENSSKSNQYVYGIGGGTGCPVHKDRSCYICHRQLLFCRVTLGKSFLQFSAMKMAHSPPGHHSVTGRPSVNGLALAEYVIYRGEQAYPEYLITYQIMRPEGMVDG
Assay: In vitro Scintillation Proximity Assay (SPA) for TANK-2 inhibitory activity
Assay type: biochemical
Details: read-out: in vitro SPA assay TANK-2 pIC50 (converted)
Each item that follows carries a reported IC50.
Only the number, expressed in µM, is required.

MOLECULE	UNITS LABEL	IC50
CCc1cc2ccc(C(C)(C#N)Cc3cnc(Cl)nc3Cl)cc2[nH]c1=O (stereo not drawn)	µM	0.126
CCc1cc2ccc(C(C)(C#N)Cc3cccc(C(=O)N(C)C)c3)cc2[nH]c1=O (stereo not drawn)	µM	0.2
CCc1cc2ccc(C(C)(C#N)Cc3ccc(OC)cc3)cc2[nH]c1=O (stereo not drawn)	µM	0.0316
CCc1cc2ccc(C(C)(C#N)Cc3cc(Br)cc4c3OCC4)cc2[nH]c1=O (stereo not drawn)	µM	0.251
CCc1cc2ccc(C(C)(C#N)Cc3cccc(-c4nc(C)no4)c3)cc2[nH]c1=O (stereo not drawn)	µM	0.0794
CCc1cc2ccc(C(C)(C#N)Cc3cc(OC)cc(OC)n3)cc2[nH]c1=O (stereo not drawn)	µM	0.0631
CCc1cc2ccc(C(C)(C#N)Cc3cccc(C#CCN(C)C)c3)cc2[nH]c1=O (stereo not drawn)	µM	1.58
CCc1cc2ccc([C@@](C)(C#N)Cc3nc(OC)cc(OC)n3)cc2[nH]c1=O (single isomer, unassigned)	µM	0.158

Given the entry Cc1cc2ccc([C@@](C)(C#N)[C@H]3CCc4cc(C#N)ccc43)cc2[nH]c1=O , report its measured IC50.
3.16
